Target: human neurokinin 1 (NK1) receptor (Homo sapiens, UniProt P25103)
Construct: expressed in transfected cells; host or cells: Chinese Hamster ovary (CHO) cells
Sequence (P25103 whole entry): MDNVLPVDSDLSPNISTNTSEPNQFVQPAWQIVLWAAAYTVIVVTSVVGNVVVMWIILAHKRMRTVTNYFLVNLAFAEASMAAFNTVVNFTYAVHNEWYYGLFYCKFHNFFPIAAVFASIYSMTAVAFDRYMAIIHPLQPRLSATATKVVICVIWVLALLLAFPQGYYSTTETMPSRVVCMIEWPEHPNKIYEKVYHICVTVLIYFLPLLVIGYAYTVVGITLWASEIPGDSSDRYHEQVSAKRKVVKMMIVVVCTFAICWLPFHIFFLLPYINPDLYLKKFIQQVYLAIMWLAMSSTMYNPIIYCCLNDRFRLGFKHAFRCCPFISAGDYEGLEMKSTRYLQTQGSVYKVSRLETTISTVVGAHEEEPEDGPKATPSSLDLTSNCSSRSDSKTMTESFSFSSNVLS
Test: Neurokinin Receptor Binding Assay, NK1

Compound: CON=C(COCc1cc(C(F)(F)F)cc(C(F)(F)F)c1)C(CCN1CCC(O)(c2ccccc2)CC1)c1ccc(Cl)c(Cl)c1 (stereo not shown)
Unit: nM
Ki: 25

----------
Target: human neurokinin 2 (NK2) receptor (Homo sapiens, UniProt P21452)
Construct: expressed in transfected cells; host or cells: Chinese Hamster ovary (CHO) cells
Sequence (P21452 whole entry): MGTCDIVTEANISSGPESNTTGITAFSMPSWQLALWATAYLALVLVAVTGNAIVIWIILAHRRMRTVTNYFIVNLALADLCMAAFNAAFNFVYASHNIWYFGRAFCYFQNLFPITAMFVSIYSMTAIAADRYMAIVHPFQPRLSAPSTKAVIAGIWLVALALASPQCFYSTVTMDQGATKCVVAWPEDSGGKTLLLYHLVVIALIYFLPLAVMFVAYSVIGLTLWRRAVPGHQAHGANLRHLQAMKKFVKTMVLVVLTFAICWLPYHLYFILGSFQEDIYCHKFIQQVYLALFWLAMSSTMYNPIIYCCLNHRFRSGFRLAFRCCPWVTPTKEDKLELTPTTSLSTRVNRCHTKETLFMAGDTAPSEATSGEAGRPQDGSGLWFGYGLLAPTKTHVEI
Assay: Neurokinin Receptor Binding Assay, NK2
Measured Metric: Ki

Compound: CON=C(COCc1cc(C(F)(F)F)cc(C(F)(F)F)c1)C(CCN1CCC(O)(c2ccccc2)CC1)c1ccc(Cl)c(Cl)c1 (stereo not shown)
Measured On: human neurokinin 2 (NK2) receptor (Homo sapiens, UniProt P21452)
Observed Result: 20 nM

----------
Catalogue of inhibition at 1 µM values
Biological target: human neurokinin 1 (NK1) receptor (Homo sapiens)
Construct: expressed in transfected cells; host or cells: Chinese Hamster ovary (CHO) cells
Experiment: Neurokinin Receptor Binding Assay, NK1
Details: 1 μM dose; [3H]-Substance P; CHO cell membranes

Compound: OC1(c2ccccc2)CCN(CCC(C(COCc2cc(C(F)(F)F)cc(C(F)(F)F)c2)=NOCc2ccccc2)c2ccc(Cl)c(Cl)c2)CC1 (stereo not drawn)
inhibition at 1 µM, %: 44

Compound: CON=C(COCc1cccc(C)c1F)C(CCN1CCC(O)(c2ccccc2)CC1)c1ccc(Cl)c(Cl)c1 (stereo not drawn) [Example 22AK]
inhibition at 1 µM, %: 67

Compound: CON=C(COCc1cc(C(F)(F)F)cc(C(F)(F)F)c1)C(CCN1CCC(C(=O)N2CCCC2)CC1)c1ccc(Cl)c(Cl)c1 (stereo not drawn) [Example 42L]
inhibition at 1 µM, %: 91

----------
Catalogue of pKi values
Target: human neurokinin 1 (NK1) receptor (Homo sapiens, UniProt P25103)
Construct: expressed in transfected cells; host or cells: Chinese Hamster ovary (CHO) cells
Test: Neurokinin Receptor Binding Assay, NK1
Details: [3H]-Substance P; CHO cell membranes; read-out: Ki (NK1)
pKi: −log10 of the molar value.
Measured Metric: pKi

Compound: NC(CON=C(COCc1cc(C(F)(F)F)cc(C(F)(F)F)c1)C(CCN1CCC(N2CCCCC2)CC1)c1ccc(Cl)c(Cl)c1)=NO (stereo not drawn) [Example 39F]
Measured On: human neurokinin 1 (NK1) receptor (Homo sapiens, UniProt P25103)
Observed Result: 8.37

Compound: CON=C(COCc1cc(C(F)(F)F)cc(C(F)(F)F)c1)C(CCN1CCC(C(=O)N2CCCC2)CC1)c1ccc(Cl)c(Cl)c1 (stereo not drawn) [Example 42L]
Measured On: human neurokinin 1 (NK1) receptor (Homo sapiens, UniProt P25103)
Observed Result: 8.34

Compound: CCOC(=O)C=C(COCc1cc(C(F)(F)F)cc(C(F)(F)F)c1)C(CCN1CCC(O)(c2ccccc2)CC1)c1ccc(Cl)c(Cl)c1 (stereo not drawn) [Example 2]
Measured On: human neurokinin 1 (NK1) receptor (Homo sapiens, UniProt P25103)
Observed Result: 7.40

Compound: OCCN(CC=C(COCc1cc(C(F)(F)F)cc(C(F)(F)F)c1)C(CCN1CCC(O)(c2ccccc2)CC1)c1ccc(Cl)c(Cl)c1)CCO (stereo not drawn) [Example 35C]
Measured On: human neurokinin 1 (NK1) receptor (Homo sapiens, UniProt P25103)
Observed Result: 8.70

Compound: CN1CCN(N=C(COCc2cc(C(F)(F)F)cc(C(F)(F)F)c2)C(CCN2CCC(O)(c3ccccc3)CC2)c2ccc(Cl)c(Cl)c2)CC1 (stereo not drawn) [Example 7]
Measured On: human neurokinin 1 (NK1) receptor (Homo sapiens, UniProt P25103)
Observed Result: 6.92

Compound: CON=C(COCc1cccc(C)c1F)C(CCN1CCC(O)(c2ccccc2)CC1)c1ccc(Cl)c(Cl)c1 (stereo not drawn) [Example 22AK]
Measured On: human neurokinin 1 (NK1) receptor (Homo sapiens, UniProt P25103)
Observed Result: 6.88
